# PROTOCOL_TEXT: protein stability index of a GFP-peptide fusion (GPS, HEK-293T) (PSI 1-6); higher = more stable;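 further: 24-mer peptide tiles fused after GFP, lentivirally expressed, FACS-sorted into six equal bins by GFP/DsRed ratio, decoded by Illumina sequencing, PSI is the read-weighted mean bin number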
# CONDITION_LABEL: treatment: DMSO; c terminus: a fixed tail appended
The label depends only on protein stability index: T if it is at least 4, F if it is smaller.

Worked examples follow.
[[record]]
record_sequence = "NHDSHMAKERAHSTASHSSSNSED [PDZK1]"
category = "T"

[[record]]
record_sequence = "GRVEVLKNGEWGTVCDDKWDLVSA [LOXL2]"
category = "T"

[[record]]
record_sequence = "SRHVTTRAALTYTSLEITILTSQP [M1AP]"
category = "F"


# input for lookup
Q. Hi team, for ISRKLGDMRNSATFKSFEDRVGTI [TPD52L2] , is the recorded protein stability index at or above 4?
A. F

----------
// reported protein stability index for each item listed
# PROTOCOL_TEXT: protein stability index of a GFP-peptide fusion (GPS, HEK-293T) (PSI 1-6); higher = more stable
# CONDITION_LABEL: treatment: DMSO; c terminus: a fixed tail appended

See these solved cases before continuing.
[[record]]
record_sequence = "QPRGGVSSRIEQGEWGGRHPSWPW"
value_measured = 2.99

[[record]]
record_sequence = "GDAHFDEDERWTNNFREYNLHRVA [MMP1]"
value_measured = 3.84

[[record]]
record_sequence = "REIEELLAEAKYYLVQGLVEECQA [KCTD10]"
value_measured = 2.02

[[record]]
record_sequence = "HPGEHEVGEPEFHYIAGAHGNEVL [CPXM2]"
value_measured = 5.1

[[record]]
record_sequence = "PDSELSPCIPPGFRNLVADRVLNY [SPAG8]"
value_measured = 3.18


Q. GET /values?readout=protein stability index&item= QDSPLDLTVRKSQSEPSEQDGVLD [LCOR]
A. 5.42

Q. Now try APSKKAAKDPGKGELPNHPKPAGG [FBF1] .
A. 5.1

Q. Similarly, TVLLEEETLEASVGPRETEEKVRD [TOR1AIP2] ?
A. 5.59

Q. And then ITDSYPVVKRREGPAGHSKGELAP [POLD4] , what is it?
A. 3.42

Q. Similarly, LKSISAEEILTLFCGAPPVTPIIV [PHTF1] ?
A. 3.16

Q. Another: SHEANKLQDMLDGFIKKFVLCPEC [EIF5]
A. 2.49

Q. Try RTLSAFLCLGGLACLIVMFLPEKK [SLC22A15] next.
A. 3.25

Q. ELPTRIHEEVYFEPSSSKDSDENS [MIA2] ?
A. 5.34

Q. What would you report for PLRAAHRRFNFDTDRPLLSTLEES [SMG5] ?
A. 3.94
